# Test system: MALME-3M melanoma
# test.description: NCI tumour cell line growth inhibition, 48 h
parameter.measured: GI50

### Prompt Please look up its GI50: c1cncc([O][Ge]([O]c2cccnc2)([O]c2cccnc2)[O]c2cccnc2)c1
### Response > 100 µM

### Prompt Please look up its GI50: Fc1ccc(-c2nn3c(COc4ccc(Cl)cc4)nnc3s2)cc1Oc1ccccc1
### Response 29 µM

### Prompt Please look up its GI50: COc1ccc(/C=C\c2cc(OC)c(OC)c(OC)c2)c(NS(=O)(=O)c2ccc(C(C)(C)C)cc2)c1O
### Response 12.5 µM

### Prompt Please look up its GI50: CCN1CCN(c2nc(NNC(=O)c3ccccc3)nc(N3CCN(C(c4ccccc4)c4ccccc4)CC3)n2)CC1
### Response 1.7 µM

### Prompt Please look up its GI50: CC1=C2[C@@H](CC1)[C@]1(C)O[C@@](C3CC3)(C[C@H]1OC(=O)CO)[C@H]2OC(=O)/C=C/c1ccccc1
### Response 15.6 µM

### Prompt Please look up its GI50: O=NN(CCCl)C(=O)NC1CCCCC1
### Response 18 µM

### Prompt Please look up its GI50: COc1cc(N(CCC#N)CCC#N)ccc1/C(N=Nc1ccc(C(=O)O)cc1)=N/NC(=O)c1cc(Br)ccc1O
### Response > 150 µg/mL

### Prompt Please look up its GI50: Clc1ccc2c(NCCCN3CCN(c4nc(N5CCOCC5)nc5ccccc45)CC3)ccnc2c1
### Response 1.9 µM

### Prompt Please look up its GI50: CNCc1ccc(-c2[nH]c3cc(F)cc4c3c2CCNC4=O)cc1
### Response 17 µM

### Prompt Please look up its GI50: COc1ccc(Cc2nc3cc(OC)c(OC)cc3c(=O)[nH]2)cc1
### Response 9.53 µM

* * *

# Tested on: UACC-62 melanoma
# test.description: NCI tumour cell line growth inhibition, 48 h
Record form. Attribute: GI50. Fill in for each entry.

### Prompt Please look up its GI50: NC(=O)c1ncn(C2OC(CO)C(O)C2O)c1N (configuration not stated)
### Response > 100 µM

### Prompt Please look up its GI50: CC1(C)CC[C@]2(C(=O)O)CC[C@]3(C)C(=CC[C@@H]4[C@@]5(C)C/C(=C/c6ccco6)C(=O)C(C)(C)[C@@H]5CC[C@]43C)[C@@H]2C1
### Response 3.06 µM

### Prompt Please look up its GI50: COc1cc(/C=C\c2cc(OC)c(OC)c(OC)c2)cc(NS(=O)(=O)c2ccc(Cl)cc2)c1OC
### Response 0.435 µM

### Prompt Please look up its GI50: C=C(Cn1c2ccccc2c(=O)c2ccccc21)c1ccc(C(=O)Nc2ccccc2N)cc1
### Response > 100 µM

### Prompt Please look up its GI50: NC(N)=N/N=C(/c1ccccc1)c1ccccc1F
### Response 4.54 µM

### Prompt Please look up its GI50: CNCc1ccc(-c2[nH]c3cc(F)cc4c3c2CCNC4=O)cc1
### Response 15 µM

### Prompt Please look up its GI50: C#CC#CC#CC#CC#CC#CC#CC#CC[C@@H]1OC[C@@H](COC(=O)O[C@@H](C(=O)O[C@H]2C[C@@]3(O)[C@@H](OC(=O)c4ccccc4)[C@@H]4[C@]5(OC(C)=O)CO[C@@H]5C[C@H](O)[C@@]4(C)C(=O)[C@H](OC(C)=O)C(=C2C)C3(C)C)[C@@H](NC(=O)c2ccccc2)c2ccccc2)O1
### Response 0.815 µM

* * *

# System: A498 renal
# test.description: NCI tumour cell line growth inhibition, 48 h
parameter.measured: TGI

### Prompt Please look up its TGI: O=C(c1ccccc1)C(Br)C(Br)c1ccccc1 (stereo not given)
### Response 25.5 µM

### Prompt Please look up its TGI: CC(=O)[O-].[Mn+3].[O-]c1ccc(Cl)cc1C=NCCN=Cc1cc(Cl)ccc1[O-]
### Response > 100 µM

### Prompt Please look up its TGI: O=C1CNN=C(Cn2nc(-c3ccccc3)c3ccccc3c2=O)N1
### Response > 100 µM

### Prompt Please look up its TGI: Nc1ccc(C(=O)/C=C/c2ccccc2O)cc1
### Response > 100 µM

### Prompt Please look up its TGI: C=CCOC(=O)N1c2ccc(O)cc2[C@@]23O[C@@]24[C@@H]1C#C/C=C\C#C[C@]3(O)C(=O)C[C@@H]4C
### Response > 100 µM

* * *

# Tested on: M14 melanoma
# test.description: NCI tumour cell line growth inhibition, 48 h; in the data active = GI50 below about 0.43 µM; inactive = the rest
Bench note: report the call from true (1) (active), false (0) (inactive)

### Prompt For this compound, state the assay outcome: COc1c(O)c2c3c(c1OC)-c1ccccc1CC3N(S(=O)(=O)c1ccc(C)cc1)CC2 (stereo not given)
### Response false (0)

### Prompt For this compound, state the assay outcome: COc1ccc(/C=C\c2cc(OC)c(OC)c(OC)c2)c(NS(=O)(=O)c2ccc(C(C)(C)C)cc2)c1O
### Response true (1)

### Prompt For this compound, state the assay outcome: COc1cc(OC)cc(-c2ccc(-c3ccc(C(=N)N)cn3)s2)c1
### Response false (0)

### Prompt For this compound, state the assay outcome: O=C(N/N=C/c1ccc(F)cc1)c1ccc(C(F)(F)F)nc1Nc1cccc(C(F)(F)F)c1
### Response false (0)

### Prompt For this compound, state the assay outcome: CC1=C2[C@@H](CC1)[C@]1(C)O[C@@](C3CC3)(C[C@H]1OC(=O)CO)[C@H]2OC(=O)/C=C/c1ccccc1
### Response false (0)

### Prompt For this compound, state the assay outcome: c1cncc([O][Ge]([O]c2cccnc2)([O]c2cccnc2)[O]c2cccnc2)c1
### Response false (0)

### Prompt For this compound, state the assay outcome: COc1cc(/C=C2\C(=O)N(C)c3ccccc32)cc(OC)c1OC
### Response false (0)

### Prompt For this compound, state the assay outcome: Fc1ccc(-c2nn3c(COc4ccc(Cl)cc4)nnc3s2)cc1Oc1ccccc1
### Response false (0)

### Prompt For this compound, state the assay outcome: O=C(c1ccccc1)C(Br)C(Br)c1ccccc1 (stereo not given)
### Response false (0)

### Prompt For this compound, state the assay outcome: CCSc1ncc(Br)c(Sc2nc(N)nc3nc[nH]c23)n1
### Response false (0)

* * *

# Test system: MDA-MB-231 breast
# test.description: NCI tumour cell line growth inhibition, 48 h
Outcome label depends on TGI relative to 30 µM: at/above gives 1.0, below gives 0.0.

### Prompt Say whether NC(N)=N/N=C/c1c(-c2ccc(Cl)c([N+](=O)[O-])c2)nc2sc3ccccc3n12 shows TGI of 30 µM or more.
### Response 0.0

### Prompt Say whether Nc1ncnc2c1nc(Cl)n2C1OC(CO)C(O)C1O (centres undefined) shows TGI of 30 µM or more.
### Response 1.0

### Prompt Say whether C#CC#CC#CC#CC#CC#CC#CC#CC[C@@H]1OC[C@@H](COC(=O)O[C@@H](C(=O)O[C@H]2C[C@@]3(O)[C@@H](OC(=O)c4ccccc4)[C@@H]4[C@]5(OC(C)=O)CO[C@@H]5C[C@H](O)[C@@]4(C)C(=O)[C@H](OC(C)=O)C(=C2C)C3(C)C)[C@@H](NC(=O)c2ccccc2)c2ccccc2)O1 shows TGI of 30 µM or more.
### Response 1.0

### Prompt Say whether O=S(=O)(O)c1cc(O)c(N=Nc2ccc3ccccc3c2O)c2ccccc12 shows TGI of 30 µM or more.
### Response 1.0

### Prompt Say whether N/C(=N\C(N)=N\c1nc2ccccc2s1)c1cnccn1 shows TGI of 30 µM or more.
### Response 1.0

### Prompt Say whether c1ccc(Nc2nnc(CCCCCCCCc3nnc(Nc4ccccc4)o3)o2)cc1 shows TGI of 30 µM or more.
### Response 1.0

### Prompt Say whether O=c1[nH]c2ccc([N+](=O)[O-])c(Cl)c2c2ccccc12 shows TGI of 30 µM or more.
### Response 0.0

### Prompt Say whether COc1c(O)c2c3c(c1OC)-c1ccccc1CC3N(S(=O)(=O)c1ccc(C)cc1)CC2 (centres undefined) shows TGI of 30 µM or more.
### Response 1.0

### Prompt Say whether COC(=O)C(=O)C(C(=O)C(=O)Nc1ccc(C)c(C)c1)c1nc2ccc([N+](=O)[O-])cc2[nH]c1=O (centres undefined) shows TGI of 30 µM or more.
### Response 1.0

### Prompt Say whether NC(=O)c1ncn(C2OC(CO)C(O)C2O)c1N (centres undefined) shows TGI of 30 µM or more.
### Response 1.0

### Prompt Say whether CCCCC[C@@H](C/C=C/CCC(=O)NC/C(=C/Cl)[C@H]1C(=O)C(C)(C)C(=O)[C@@H](C)[C@@]1(C)O)OC shows TGI of 30 µM or more.
### Response 1.0

### Prompt Say whether C#Cc1cccc(NC(=O)C2CCCN(C(=O)CCl)C2)c1 (centres undefined) shows TGI of 30 µM or more.
### Response 1.0

### Prompt Say whether COc1ccc(C23OCC(Cc4cc(OC)c(OC)cc42)C3CO)cc1OC (centres undefined) shows TGI of 30 µM or more.
### Response 1.0

### Prompt Say whether CCCCCCCCCCCCC1N=C(N)N2CCCC2=C1C(=O)OC (centres undefined) shows TGI of 30 µM or more.
### Response 0.0

### Prompt Say whether CC1CCCN1CCCOC(=O)c1ccc(OC2C=CCCC2)cc1 (centres undefined) shows TGI of 30 µM or more.
### Response 1.0

### Prompt Say whether COc1ccc(/C(C)=C(\c2ccc(Cl)cc2)c2ccc(OCCN3CCCCCC3)cc2)cc1F shows TGI of 30 µM or more.
### Response 0.0

### Prompt Say whether CCOC(=O)C1CCC(=O)N1C(=O)c1ccc(Cl)cc1 (centres undefined) shows TGI of 30 µM or more.
### Response 1.0

### Prompt Say whether CCSc1ncc(Br)c(Sc2nc(N)nc3nc[nH]c23)n1 shows TGI of 30 µM or more.
### Response 1.0

### Prompt Say whether O=C(C(=O)c1cc(Br)ccc1O)c1cc(Br)ccc1O shows TGI of 30 µM or more.
### Response 0.0
